- assay-target: human mAChR M1 (Homo sapiens, UniProt P11229)
- assay-details: mAChR M1 cell-based functional assay (calcium mobilization), PAM mode: increase in the EC20 acetylcholine response
- Procedure: Chinese hamster ovary (CHO-K1) cells stably expressing rat (r)M1 were purchased from the American Type Culture Collection and cultured according to their indicated protocol. […] Calcium flux was measured using the Functional Drug Screening System (FDSS) 6000 (Hamamatsu Corporation, Tokyo, Japan) as an increase in the fluorescent static ratio. […] Agonist activity was analyzed as a concentration-dependent increase in calcium mobilization upon compound addition. […]
Give Condition met when the value for Emax is at least 80%. Give Condition not met when it is less.

Worked examples follow.
Item [2H]C1([2H])c2ncccc2C(=O)N1Cc1c(C)cc(-c2ccc(C)c3nn(C)cc23)cc1F [Compound 197] with Emax of 80% or above? Condition met

Item [2H]C1([2H])c2ncc(Br)cc2C(=O)N1Cc1c(F)cc(-c2cccc3nn(C)cc23)cc1F [Compound 61] with Emax of 80% or above? Condition not met

Item [2H]C1([2H])c2ncccc2C(=O)N1Cc1c(F)cc(-c2cccn3nc(C)cc23)cc1F [Compound 235] with Emax of 80% or above? Condition not met

Item [2H]C1([2H])c2ncccc2C(=O)N1Cc1c(F)cc(-c2ccc(OCCOC)c3nn(C)cc23)cc1C1CC1 [Compound 203] with Emax of 80% or above? Condition not met

Item [2H]C1([2H])c2ncccc2C(=O)N1Cc1ccc(-c2ccc(OCCOC)c3nn(C([2H])([2H])[2H])cc23)cc1F [Compound 117] with Emax of 80% or above? Condition not met

Item [2H]C1([2H])c2ncccc2C(=O)N1Cc1c(Cl)cc(-c2cccc3nn(C([2H])([2H])[2H])cc23)cc1Cl [Compound 228] with Emax of 80% or above? Condition not met

---
Item [2H]C1([2H])c2ncccc2C(=O)N1Cc1ccc(-c2ccc3c(cnn3C)c2)cc1 [Compound 237] with Emax of 80% or above? Condition not met

Item [2H]C([2H])([2H])Oc1cnc2c(c1)C(=O)N(Cc1c(F)cc(-c3cccc4nn(C)cc34)cc1F)C2([2H])[2H] [Compound 63] with Emax of 80% or above? Condition met

Item [2H]C1([2H])c2ncccc2C(=O)N1Cc1c(F)cc(-c2ccc(OC(F)(F)F)c3nn(C([2H])([2H])[2H])cc23)cc1F [Compound 104] with Emax of 80% or above? Condition not met

Item [2H]C1([2H])c2ncccc2C(=O)N1Cc1c(F)cc(-c2ccc(OC3CC3)c3nn(C)cc23)cc1F [Compound 124] with Emax of 80% or above? Condition not met

Item [2H]C1([2H])c2ncccc2C(=O)N1Cc1c(F)cc(-c2ccnc3nn(C)cc23)cc1Cl [Compound 165] with Emax of 80% or above? Condition met

Item [2H]C1([2H])c2ncccc2C(=O)N1Cc1ccc(-c2cc(F)cc3nn(C)cc23)cc1C [Compound 84] with Emax of 80% or above? Condition not met

* * *

- assay-target: human mAChR M1 (Homo sapiens)
- Sequence (P11229 1-460): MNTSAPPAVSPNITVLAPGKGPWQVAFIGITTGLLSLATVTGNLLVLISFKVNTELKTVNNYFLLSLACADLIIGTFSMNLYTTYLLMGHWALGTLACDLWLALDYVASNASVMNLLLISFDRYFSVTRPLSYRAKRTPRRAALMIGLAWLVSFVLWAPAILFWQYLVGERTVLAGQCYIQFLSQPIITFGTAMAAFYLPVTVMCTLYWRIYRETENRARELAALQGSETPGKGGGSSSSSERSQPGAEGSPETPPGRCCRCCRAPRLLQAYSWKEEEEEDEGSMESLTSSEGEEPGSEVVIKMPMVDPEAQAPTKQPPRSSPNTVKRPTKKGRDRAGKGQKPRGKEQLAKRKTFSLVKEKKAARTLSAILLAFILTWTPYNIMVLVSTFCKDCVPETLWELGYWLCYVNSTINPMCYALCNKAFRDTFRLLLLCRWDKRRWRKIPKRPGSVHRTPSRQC
- assay-details: mAChR M1 cell-based functional assay (calcium mobilization), PAM mode: increase in the EC20 acetylcholine response
pEC50: −log10 of the molar value.
Give Fulfilled when the value for pEC50 is at least 6. Give Not fulfilled when it is less.

Worked examples follow.
Item [2H]C1([2H])c2ncccc2C(=O)N1Cc1c(F)cc(-c2ccc(OC3CC3)c3nn(C)cc23)cc1Cl with pEC50 of 6 or above? Fulfilled

Item [2H]C1([2H])c2ncccc2C(=O)N1Cc1c(F)cc(-c2ccc(OC3CN(S(=O)(=O)C(C)C)C3)c3nn(C)cc23)cc1F with pEC50 of 6 or above? Fulfilled

Item [2H]C1([2H])c2ncccc2C(=O)N1Cc1c(C)cc(-c2ccc(OCCOC)c3nn(C)cc23)cc1F with pEC50 of 6 or above? Fulfilled

Item [2H]C1([2H])c2ncccc2C(=O)N1Cc1ccc(-c2ccnc3nn(C)cc23)cc1F with pEC50 of 6 or above? Not fulfilled

---
Item [2H]C1([2H])c2ncccc2C(=O)N1Cc1ccc(-c2cccc3nn(C)cc23)cc1C(C)C with pEC50 of 6 or above? Not fulfilled

Item [2H]C([2H])([2H])Oc1cnc2c(c1)C(=O)N(Cc1c(F)cc(-c3cccc4nn(C)cc34)cc1F)C2([2H])[2H] with pEC50 of 6 or above? Fulfilled

Item [2H]C([2H])([2H])Oc1ccc(-c2cc(F)c(CN3C(=O)c4cccnc4C3([2H])[2H])c(F)c2)c2cn(C)nc12 with pEC50 of 6 or above? Fulfilled

Item [2H]C1([2H])c2ncccc2C(=O)N1Cc1c(F)cc(-c2ccc(OC(F)(F)F)c3nn(C)cc23)cc1F with pEC50 of 6 or above? Not fulfilled

Item [2H]C1([2H])c2ncccc2C(=O)N1Cc1ccc(-c2cccc3nn(C([2H])([2H])[2H])cc23)cc1C(C)C with pEC50 of 6 or above? Not fulfilled

Item [2H]C1([2H])c2ncccc2C(=O)N1Cc1c(F)cc(-c2cnc(OC)c3nn(C)cc23)cc1F with pEC50 of 6 or above? Not fulfilled

Item [2H]C1([2H])c2ncccc2C(=O)N1Cc1ccc(-c2ccc(F)c3nn(C([2H])([2H])[2H])cc23)cc1F with pEC50 of 6 or above? Fulfilled

Item [2H]C1([2H])c2ncccc2C(=O)N1Cc1c(F)cc(-c2ccc(OCCOC)c3nn(C)cc23)cc1F with pEC50 of 6 or above? Fulfilled

Item [2H]C1([2H])c2ncccc2C(=O)N1Cc1ccc(-c2ccc3cn(C)nc3c2)cc1 with pEC50 of 6 or above? Not fulfilled
